assay: reduction of polyQ htt aggregates in cells – imaging, exon1htt(103Q)mCFP cells, high-content imaging, primary screen (AID 483); conditions: exon1htt(103Q)mCFP cell line, aggregate imaging, at 2 µM; measured here: cell count, toxicity;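 further: compound exposure lasted 3 days before fixation; percent of the per-plate median nuclei count of sample wells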

Compound: COc1ccccc1N1CCN(C/C(O)=C(\C#N)c2nc(-c3ccccc3)cs2)CC1
Scale Unit: %
nuclei count: 114
--
Compound: O=C(Nc1sccc1C(=O)NCc1ccco1)c1cccnc1
Scale Unit: %
nuclei count: 103
--
Compound: COC(=O)C1=C(C)NC(=O)C1(NC(=O)CN1CCCC1=O)C(F)(F)F (stereo not given)
Scale Unit: %
nuclei count: 106
--
Compound: CC(=O)c1ccc(OCC(O)CN2CCN(Cc3ccc4c(c3)OCO4)CC2)cc1 (stereo not given)
Scale Unit: %
nuclei count: 87.9
--
Compound: Cc1cc(NC(=O)Cn2cnc3c(cnn3C(C)(C)C)c2=O)no1
Scale Unit: %
nuclei count: 113

* * *

target: Alpha-2C adrenergic receptor (Homo sapiens) (UniProt P18825); experiment: compounds altering alpha2C-coupled GIRK flux – cell-based, HEK293 alpha2C/GIRK1/2, thallium flux, primary screen (AID 624); conditions: thallium flux BTC fluorescence, at 10 µM, actives lie on both sides;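 further: slope of fluorescence ratio to pre-addition baseline per second over 15 to 24 s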
Sequence (P18825 whole entry, looked up): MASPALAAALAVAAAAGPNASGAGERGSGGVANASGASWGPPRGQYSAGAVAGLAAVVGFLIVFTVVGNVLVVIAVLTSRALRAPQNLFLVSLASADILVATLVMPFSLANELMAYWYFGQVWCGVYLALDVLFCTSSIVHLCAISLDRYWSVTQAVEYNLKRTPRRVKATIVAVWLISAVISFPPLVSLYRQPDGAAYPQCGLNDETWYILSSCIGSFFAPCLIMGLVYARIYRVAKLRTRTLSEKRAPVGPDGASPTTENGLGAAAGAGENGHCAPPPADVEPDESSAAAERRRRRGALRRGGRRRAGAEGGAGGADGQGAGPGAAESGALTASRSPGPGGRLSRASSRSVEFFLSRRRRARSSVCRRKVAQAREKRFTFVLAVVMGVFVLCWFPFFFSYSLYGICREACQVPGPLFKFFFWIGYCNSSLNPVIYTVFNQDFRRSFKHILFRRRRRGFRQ
Reported slope values for a set of molecules
Endpoint Name: slope

Molecule: COc1ccc(N2C(=O)C3C4C=CC(C4)C3C2=O)nn1 (configuration not stated)
Target Desc: Alpha-2C adrenergic receptor (Homo sapiens) (UniProt P18825)
Endpoint Name: slope
Number: 0.00628

Molecule: Cc1nnc(SCCn2c(N3CCC(Cc4ccccc4)CC3)nc3c2c(=O)[nH]c(=O)n3C)s1
Target Desc: Alpha-2C adrenergic receptor (Homo sapiens) (UniProt P18825)
Endpoint Name: slope
Number: 0.00468

Molecule: O=C(Nc1ccccc1C(=O)N1CCOCC1)c1cccc(S(=O)(=O)N2CCCC2)c1
Target Desc: Alpha-2C adrenergic receptor (Homo sapiens) (UniProt P18825)
Endpoint Name: slope
Number: 0.00695

Molecule: CC(C)(C)NC(=O)CC(CC(=O)O)c1ccccc1 (configuration not stated)
Target Desc: Alpha-2C adrenergic receptor (Homo sapiens) (UniProt P18825)
Endpoint Name: slope
Number: 0.008

Molecule: O=C(NC1CCCCC1NC(=O)c1ccco1)c1ccco1 (configuration not stated)
Target Desc: Alpha-2C adrenergic receptor (Homo sapiens) (UniProt P18825)
Endpoint Name: slope
Number: 0.00439

Molecule: O=C(O)COc1cccc(NC(=O)C2CCCO2)c1 (configuration not stated)
Target Desc: Alpha-2C adrenergic receptor (Homo sapiens) (UniProt P18825)
Endpoint Name: slope
Number: 0.00558

Molecule: CCOC(=O)N1CCC(n2c(SCC(=O)NCc3ccco3)nc3ccsc3c2=O)CC1
Target Desc: Alpha-2C adrenergic receptor (Homo sapiens) (UniProt P18825)
Endpoint Name: slope
Number: 0.00588

Molecule: Cc1cc(NC(=O)CSc2nc3c(c(-c4cccnc4)c2C#N)CCC3)no1
Target Desc: Alpha-2C adrenergic receptor (Homo sapiens) (UniProt P18825)
Endpoint Name: slope
Number: 0.00719

Molecule: Cc1cc(C)c2cc3c(ccn3C3OC[C@H](O)[C@H](O)[C@H]3O)cc2n1 (some centres not stated)
Target Desc: Alpha-2C adrenergic receptor (Homo sapiens) (UniProt P18825)
Endpoint Name: slope
Number: 0.002

Molecule: Cc1cc(C)cc(NS(=O)(=O)c2ccc3[nH]c(=O)[nH]c3c2)c1
Target Desc: Alpha-2C adrenergic receptor (Homo sapiens) (UniProt P18825)
Endpoint Name: slope
Number: 0.00328

Molecule: CCn1ncc(C2=NOC(C(=O)Nc3ccc4c(c3)OCO4)C2)c1C (configuration not stated)
Target Desc: Alpha-2C adrenergic receptor (Homo sapiens) (UniProt P18825)
Endpoint Name: slope
Number: 0.00345

Molecule: Cc1nc(NC2=NCN(CCN3CCOCC3)CN2)nc2c(C)cccc12
Target Desc: Alpha-2C adrenergic receptor (Homo sapiens) (UniProt P18825)
Endpoint Name: slope
Number: 0.00391

Molecule: CC(=O)c1c(C)[nH]c(C(=O)OCc2nnc(-c3ccccc3)o2)c1C
Target Desc: Alpha-2C adrenergic receptor (Homo sapiens) (UniProt P18825)
Endpoint Name: slope
Number: 0.00623

Molecule: CCOc1ccc(C2C(C(=O)OC)=CN(CCOC)C=C2C(=O)OC)cc1
Target Desc: Alpha-2C adrenergic receptor (Homo sapiens) (UniProt P18825)
Endpoint Name: slope
Number: 0.00651

Molecule: Cn1c(=O)c2c(nc(SCC(=O)N3CCCc4ccccc43)n2C)n(C)c1=O
Target Desc: Alpha-2C adrenergic receptor (Homo sapiens) (UniProt P18825)
Endpoint Name: slope
Number: 0.00482

Molecule: COc1cccc(N2C(=O)N(c3ccccc3Cl)C3CS(=O)(=O)CC32)c1 (configuration not stated)
Target Desc: Alpha-2C adrenergic receptor (Homo sapiens) (UniProt P18825)
Endpoint Name: slope
Number: 0.00497

Molecule: COc1ccc(-n2c(Cc3cccn3C)nnc2SCC(=O)Nc2cccc(Cl)c2)cc1
Target Desc: Alpha-2C adrenergic receptor (Homo sapiens) (UniProt P18825)
Endpoint Name: slope
Number: 0.00706

Molecule: CCc1nnc(NC(=O)CSc2nc(-c3ccc(OC)cc3)ns2)s1
Target Desc: Alpha-2C adrenergic receptor (Homo sapiens) (UniProt P18825)
Endpoint Name: slope
Number: 0.00688

Molecule: Cc1cc(C(=O)COc2cccc3cccnc23)c(C)n1C
Target Desc: Alpha-2C adrenergic receptor (Homo sapiens) (UniProt P18825)
Endpoint Name: slope
Number: 0.00438

Molecule: Cc1ccc2cc(C(c3nnnn3CC3CCCO3)N3CCc4ccccc4C3)c(=O)[nH]c2c1 (configuration not stated)
Target Desc: Alpha-2C adrenergic receptor (Homo sapiens) (UniProt P18825)
Endpoint Name: slope
Number: 0.00473

Molecule: COC(=O)C1C(=O)C2=C(CC1C)NC(=O)CC2c1ccccc1 (configuration not stated)
Target Desc: Alpha-2C adrenergic receptor (Homo sapiens) (UniProt P18825)
Endpoint Name: slope
Number: 0.00369

Molecule: Cc1cc(NC(=O)Cc2c(F)cccc2Cl)no1
Target Desc: Alpha-2C adrenergic receptor (Homo sapiens) (UniProt P18825)
Endpoint Name: slope
Number: 0.00621

* * *

biological target: Voltage-gated potassium channel subunit beta-2 (Rattus norvegicus) (UniProt P62483); test: enhancers of rat Kvbeta2 NADPH turnover – biochemical, NADPH fluorescence, primary screen (AID 623); conditions: Recombinant KvBeta, NADPH fluorescence decrease slope, 10 min; at 10 µM; stronger effect = lower value;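 further: fluorescence intensity change per second fitted from 20 to 320 s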
Sequence (P62483 whole entry, looked up): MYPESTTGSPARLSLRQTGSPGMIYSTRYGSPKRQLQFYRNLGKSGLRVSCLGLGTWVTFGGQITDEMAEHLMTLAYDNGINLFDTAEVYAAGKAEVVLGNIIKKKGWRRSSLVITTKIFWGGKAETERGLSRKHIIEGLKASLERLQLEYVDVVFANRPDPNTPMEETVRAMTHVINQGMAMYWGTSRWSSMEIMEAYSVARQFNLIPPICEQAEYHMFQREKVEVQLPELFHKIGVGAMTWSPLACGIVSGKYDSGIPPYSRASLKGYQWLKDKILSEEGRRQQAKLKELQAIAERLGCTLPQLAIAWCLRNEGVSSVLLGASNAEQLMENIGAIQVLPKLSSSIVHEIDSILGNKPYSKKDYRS
Endpoint Name: NADPH fluorescence slope

Compound: Cc1ccc(C)c2[nH]c(=O)c(CCNC(=O)c3ccc(Br)o3)cc12
Endpoint Name: NADPH fluorescence slope
Number: -0.000268
--
Compound: COc1ccccc1-n1c(SCC(=O)Nc2ccc3c(c2)OCO3)nc2c(c1=O)SCC2
Endpoint Name: NADPH fluorescence slope
Number: 4.8e-05
--
Compound: COc1ccc(C2C(C(C)=O)=C(C)N=c3s/c(=C/c4ccc5c(c4)OCO5)c(=O)n32)cc1 (stereo unspecified)
Endpoint Name: NADPH fluorescence slope
Number: -5.5e-05
--
Compound: CCOc1ccc(S(=O)(=O)Nc2cccc(Cl)c2)cc1
Endpoint Name: NADPH fluorescence slope
Number: -2.5e-05
--
Compound: CCc1n[nH]c2c1C(=O)CC(C)(C)C2
Endpoint Name: NADPH fluorescence slope
Number: -5e-05
--
Compound: Cc1csc2nc3ccccc3c(=O)n12
Endpoint Name: NADPH fluorescence slope
Number: -1.2e-05
--
Compound: O=C(c1cc(-c2cccs2)on1)N1CCc2ccccc2C1
Endpoint Name: NADPH fluorescence slope
Number: -4.4e-06
--
Compound: CCOc1ccccc1C(=O)NCC(=O)OCC(=O)N1C(C)CCCC1C (stereo unspecified)
Endpoint Name: NADPH fluorescence slope
Number: 3e-05
--
Compound: CN(CC(=O)Nc1ccc(F)c(Cl)c1)S(=O)(=O)c1cccc2nsnc12
Endpoint Name: NADPH fluorescence slope
Number: -3.5e-05
--
Compound: CCCCNS(=O)(=O)c1ccc(OC)c2ncccc12
Endpoint Name: NADPH fluorescence slope
Number: -4.1e-05
--
Compound: COc1ccc(-n2ncc3c(NCc4cccs4)ncnc32)cc1
Endpoint Name: NADPH fluorescence slope
Number: -2e-06

* * *

Reported nuclei count values for a set of compounds
experiment: endothelial E-selectin expression blockers – imaging, HUVEC, immunofluorescence, MLSMR starter and 10KST1 sets, primary screen (AID 487); conditions: HUVEC TNFalpha-induced E-selectin immunofluorescence imaging, at 2 µM; measured here: cell number, toxicity;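 further: 100% = median nuclei count of all wells on the same plate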

Compound: CCOC(=O)CN1CC23C=CC(O2)C(C(=O)NCc2ccc(F)cc2)C3C1=O (stereo not drawn)
nuclei count, %: 131
--
Compound: CCCC1(C(=O)OCC)NC(c2ccc(N(C)C)cc2)C2C(=O)N(c3ccccc3)C(=O)C21 (stereo not drawn)
nuclei count, %: 95
--
Compound: O=C(NCc1ccco1)c1c2c(nc3ccccc13)CCC2
nuclei count, %: 83.7
--
Compound: CCOC(=O)C(C)C1(O)c2ccccc2-c2ncccc21 (stereo not drawn)
nuclei count, %: 97.7
--
Compound: O=S(=O)(c1ccc2c(c1)OCCO2)N(Cc1ccc(F)cc1)Cc1nnc(-c2cccs2)o1
nuclei count, %: 119
--
Compound: CCN1C(=O)/C(=C2\C=Cc3ccccc3N2CC)OC1=S
nuclei count, %: 107
--
Compound: Cc1cc(C)nc(-n2nc(C)cc2NC(=O)c2ccc(Br)o2)n1
nuclei count, %: 105
--
Compound: c1ccc(-c2cn3c4c(sc3n2)CCCC4)cc1
nuclei count, %: 116
--
Compound: COc1ccccc1NC(=O)N(Cc1ccccc1)c1ccccn1
nuclei count, %: 114
--
Compound: Cc1cc2cc(CNC(=O)c3ccc4c(c3)OCO4)ccc2[nH]1
nuclei count, %: 150
--
Compound: Cc1nc(Nc2nc(=O)c3ccccc3n2C)nc2c(C)cccc12
nuclei count, %: 156
--
Compound: CCOC(=O)C1CCCN(C(=O)c2cc3c(C)nc4ccccc4c3o2)C1 (stereo not drawn)
nuclei count, %: 119
--
Compound: Nc1nc2sc3c(c2c(=O)s1)CCCC3
nuclei count, %: 90.7
--
Compound: CCn1cnc2sc(C(=O)Nc3ccc4c(c3)OCO4)c(C)c2c1=O
nuclei count, %: 90.6
--
Compound: CN(C1CCCCC1)S(=O)(=O)c1ccc(S(=O)(=O)N2CCCC2)cc1
nuclei count, %: 126
--
Compound: O=C(CSc1ccc(-c2ccccc2)nn1)N1CCOCC1
nuclei count, %: 132
--
Compound: COc1cccc(NC(=O)c2ccccc2NS(C)(=O)=O)c1
nuclei count, %: 149
--
Compound: Cn1c(SCc2ccc3c(c2)OCO3)nnc1-c1ccccc1
nuclei count, %: 126
--
Compound: O=S(=O)(NCCc1ccncc1)c1cc(Br)ccc1F
nuclei count, %: 110
--
Compound: Cc1ccc(Cl)cc1NC(=O)CSc1nnc(C)n1-c1ccccc1
nuclei count, %: 96
--
Compound: CCCc1cc(Nc2cccc(OC)c2)n2ncnc2n1
nuclei count, %: 111
--
Compound: CCCCOc1ccc(C(=O)Nc2ccc(N3CCN(C(=O)C(C)C)CC3)cc2)cc1
nuclei count, %: 115
--
Compound: CN1CCN(c2nc3c(c(=O)[nH]c(=O)n3C)n2CCOc2ccccc2)CC1
nuclei count, %: 116
